Measured IC50 by item
- Tested Target: MAGL (Mus musculus)
- Sequence (O35678 1-303): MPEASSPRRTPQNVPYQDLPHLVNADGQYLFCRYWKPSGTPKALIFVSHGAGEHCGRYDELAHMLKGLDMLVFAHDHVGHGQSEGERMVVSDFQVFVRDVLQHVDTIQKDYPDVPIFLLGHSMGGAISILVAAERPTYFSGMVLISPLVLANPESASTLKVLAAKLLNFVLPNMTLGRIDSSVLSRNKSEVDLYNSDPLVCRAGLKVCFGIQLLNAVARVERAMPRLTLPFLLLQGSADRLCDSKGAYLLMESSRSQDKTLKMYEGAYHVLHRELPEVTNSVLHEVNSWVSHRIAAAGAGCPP
- Assay Summary: In vitro competitive activity-based protein profiling (FP-Rh), mouse MAGL
- Format: biochemical
- Set-up: from tissue; host or cells: mouse brain membrane fraction
- Cond: Table 1, mouse proteome, 30 min preincubation at 37° C.

Compound	IC50
O=C(ON1C(=O)CC(c2ccccc2)C1=O)N1CCCCC1 (stereo not drawn)	> 10000 nM
CCCN(Cc1ccc(N2CCCCC2)cc1)C(=O)ON1C(=O)CCC1=O	> 10000 nM
COc1ccc(N2CCN(C(=O)ON3C(=O)C4CCCCC4C3=O)CC2)cc1 (stereo not drawn)	> 10000 nM
COc1ccc(N2CCN(C(=O)ON3C(=O)CC(C)(C)C3=O)CC2)cc1	> 10000 nM
O=C(ON1C(=O)CCC1=O)N1CC[C@H](OCc2ccccc2)C1	> 10000 nM
Cc1cc(N2CCN(C(=O)ON3C(=O)CCC3=O)CC2)c2ccccc2n1	100 to 1000 nM

* * *

- Tested Target: MAGL (Mus musculus, UniProt O35678)
- Assay Summary: In vitro competitive activity-based protein profiling (FP-Rh), mouse MAGL
- Format: biochemical
- Parameters: from tissue; host or cells: mouse brain membrane fraction
- Cond: Table 1, mouse proteome, 30 min preincubation at 37° C.
Reported IC50 values for a set of compounds

Compound	IC50
O=C(CN1CCN(C(=O)ON2C(=O)CCC2=O)CC1)Nc1cc(C(F)(F)F)ccc1Cl [Example 36]	< 100 nM
CN1CC(=O)N(OC(=O)N2CCN(C(c3ccc(Cl)cc3)c3ccc(Cl)cc3)CC2)C1=O [Example 56]	< 100 nM
O=C(ON1C(=O)CN(Cc2ccccc2)C1=O)N1CCC(CCc2ccc(Cl)cc2)CC1 [Example 50]	100 to 1000 nM
O=C(ON1C(=O)CC(c2ccccc2)C1=O)N1CCN(C(c2ccc(Cl)cc2)c2ccc(Cl)cc2)CC1 (stereo not drawn) [Example 44]	1000 to 10000 nM
O=C1CCC(=O)N1OC(=O)N1CCCCC1CCc1ccccc1 (stereo not drawn) [Example 25]	> 10000 nM
O=C(ON1C(=O)CCC1=O)N1CCC(C(O)(c2ccc3c(c2)OCO3)c2ccc3c(c2)OCO3)CC1 [Example 1]	< 100 nM
CCCC1CC(=O)N(OC(=O)N2CCN(C(c3ccc(Cl)cc3)c3ccc(Cl)cc3)CC2)C1=O (stereo not drawn) [Example 43]	100 to 1000 nM
O=C1CCC(=O)N1OC(=O)N1CCCCC1c1ccccc1 (stereo not drawn) [Example 23]	> 10000 nM
O=C(ON1C(=O)CCC1=O)N1CCOCC1 [Example 38]	> 10000 nM

* * *

# IC50 per record follows
- Tested Target: ABHD6 (Mus musculus)
- Sequence (Q8R2Y0 1-336): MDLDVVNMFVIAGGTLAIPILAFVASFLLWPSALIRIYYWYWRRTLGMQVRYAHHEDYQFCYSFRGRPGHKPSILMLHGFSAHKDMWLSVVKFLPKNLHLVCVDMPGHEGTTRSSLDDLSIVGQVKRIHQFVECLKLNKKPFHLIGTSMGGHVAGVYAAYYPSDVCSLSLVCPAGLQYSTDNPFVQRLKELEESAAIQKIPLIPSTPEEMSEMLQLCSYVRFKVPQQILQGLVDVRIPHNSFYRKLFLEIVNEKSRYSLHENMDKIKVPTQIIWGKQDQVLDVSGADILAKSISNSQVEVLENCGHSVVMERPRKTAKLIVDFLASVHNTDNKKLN
- Assay Summary: In vitro competitive activity-based protein profiling (FP-Rh), mouse ABHD6
- Type: biochemical
- Design: from tissue; host or cells: mouse brain membrane fraction
- Cond: Table 2, mouse proteome, 30 min preincubation at 37° C.

Compound Smiles	IC50
Cn1cc(CN2CCN(C(=O)ON3C(=O)CCC3=O)CC2)c(-c2ccccc2)n1	1000 to 10000 nM
O=C(ON1C(=O)CCC1=O)N1CCN(Cc2ccc(N3CCCC3)c(F)c2)CC1	1000 to 10000 nM
O=C(ON1C(=O)CCC1=O)N1CCN(Cc2ccc(-n3cccn3)c(F)c2)CC1	1000 to 10000 nM
O=C(ON1C(=O)CCC1=O)N1CCN(Cc2ccc(Cl)cc2N2Cc3cccnc3C2)CC1	100 to 1000 nM

* * *

- Tested Target: MAGL (Mus musculus, UniProt O35678)
- Assay Summary: In vitro competitive ABPP, % inhibition at fixed concentration, MAGL
- Assay type: biochemical
- Parameters: from tissue
Measured inhibition at 1 µM, listed per entry.
Experimental Readout: inhibition at 1 µM

Compound	Result
Cc1cccc(-c2ccc(CN3CCN(C(=O)ON4C(=O)CCC4=O)CC3)c(C)n2)c1 [Example 184]	> 75%
O=C(ON1C(=O)CCC1=O)N1CCN(Cc2cc(C(F)(F)F)ccc2N2CCOCC2)CC1 [Example 119]	25 to 75%
Cc1ccc(C(=O)N2CCOCC2)c(CN2CCN(C(=O)ON3C(=O)CCC3=O)CC2)c1 [Example 201]	< 25%
O=C(ON1C(=O)CCC1=O)N1CCN(Cc2ccc(Cl)cc2N2CCn3ncnc3C2)CC1 [Example 117]	25 to 75%

* * *

- Tested Target: ABHD6 (Mus musculus, UniProt Q8R2Y0)
- Assay Summary: In vitro competitive ABPP, % inhibition at fixed concentration, ABHD6
- Type: biochemical
- Parameters: from tissue
inhibition at 1 µM by entry:

Compound Smiles	inhibition at 1 µM
Cc1nc(-c2cccc(F)c2)ccc1CN1CCN(C(=O)ON2C(=O)CCC2=O)CC1	> 75%
O=C(ON1C(=O)CCC1=O)N1CCC(C(O)(c2ccc3c(c2)COC3)c2ccc3c(c2)COC3)CC1	< 25%
CC(C)n1cc(CN2CCN(C(=O)ON3C(=O)CCC3=O)CC2)c(-c2ccccc2Cl)n1	25 to 75%
C[C@H]1CN(Cc2ccc(N3CCOCC3)cc2C(F)(F)F)CCN1C(=O)ON1C(=O)CCC1=O	25 to 75%
O=C(ON1C(=O)CCC1=O)N1CCN(Cc2ccc(Cl)cc2C(=O)N2CCC2)CC1	< 25%
O=C(ON1C(=O)CCC1=O)N1CCN(C(c2ccc3c(c2)OCO3)c2ccc3c(c2)OCO3)CC1	25 to 75%
O=C(ON1C(=O)CCC1=O)N1CCN(Cc2cccc(Cl)c2C(=O)N2CCCC2)CC1	< 25%
O=C(ON1C(=O)CCC1=O)N1CCN(Cc2ccc(N3CCCC3)cc2)CC1	25 to 75%
Cc1cc(-c2cccnc2C)ccc1CN1CCN(C(=O)ON2C(=O)CCC2=O)CC1	25 to 75%
Cc1ccc(C(=O)N2CCCC2)c(CN2CCN(C(=O)ON3C(=O)CCC3=O)CC2)c1	< 25%
O=C(ON1C(=O)CCC1=O)N1CCN(Cc2ccc(Cl)cc2N2CCC3(CCNC3=O)CC2)CC1	25 to 75%
O=C(ON1C(=O)CCC1=O)N1CCN(Cc2ccc(N3CCOCC3)cc2)CC1	< 25%
Cc1cccc(-c2ccc(CN3CCN(C(=O)ON4C(=O)CCC4=O)CC3)c(C)n2)c1	25 to 75%
Cc1ccc(C(=O)N2CCOCC2)c(CN2CCN(C(=O)ON3C(=O)CCC3=O)CC2)c1	< 25%
C[C@H]1CN(Cc2ccc(N3CCOCC3)cc2OC(F)(F)F)CCN1C(=O)ON1C(=O)CCC1=O	25 to 75%
Cc1ccccc1-c1ccc(CN2CCN(C(=O)ON3C(=O)CCC3=O)CC2)c(C)n1	> 75%
Cc1cccc(-c2ccc(CN3CCN(C(=O)ON4C(=O)CCC4=O)CC3)c(F)c2)n1	25 to 75%
Cc1c(CN2CCN(C(=O)ON3C(=O)CCC3=O)CC2)cccc1C(=O)N1CCOCC1	> 75%
O=C(ON1C(=O)CCC1=O)N1CCN(Cc2cc(-c3ccccc3)on2)CC1	25 to 75%
Cc1c(CN2CCN(C(=O)ON3C(=O)CCC3=O)CC2)cccc1C(=O)N1CCC1	> 75%
Cc1cc(-c2ccc(CN3CCN(C(=O)ON4C(=O)CCC4=O)CC3)c(C)c2)cc(C)n1	25 to 75%
Cc1cc(CN2CCN(C(=O)ON3C(=O)CCC3=O)CC2)n(C(C)C)n1	25 to 75%
O=C(ON1C(=O)CCC1=O)N1CCN(Cc2ccc(Cl)c(C(=O)N3CCOCC3)c2)CC1	< 25%
C[C@@H]1CN(Cc2ccc(N3CCOCC3)cc2C(F)(F)F)CCN1C(=O)ON1C(=O)CCC1=O	< 25%
O=C(ON1C(=O)CCC1=O)N1CCN(Cc2cc(Cl)ccc2C(=O)N2CCOCC2)CC1	25 to 75%
O=C(ON1C(=O)CCC1=O)N1CCN(Cc2ccc(C(=O)N3CCCC3)cc2Cl)CC1	25 to 75%
Cc1cc(CN2CCN(C(=O)ON3C(=O)CCC3=O)CC2)cc(C(=O)N2CCOCC2)c1	< 25%
O=C(ON1C(=O)CCC1=O)N1CCN(Cc2ccc(-c3ccccc3)cc2F)CC1	> 75%
O=C(ON1C(=O)CCC1=O)N1CCN(Cc2ccc(Cl)cc2N2CCn3ncnc3C2)CC1	< 25%
O=C(ON1C(=O)CCC1=O)N1CCN(Cc2ccc(-c3cccc(F)c3)cn2)CC1	25 to 75%
O=C(ON1C(=O)CCC1=O)N1CCN(Cc2ccc(C(=O)N3CCOCC3)cc2Cl)CC1	25 to 75%
O=C(ON1C(=O)CCC1=O)N1CCN(Cc2ccc(Cl)c(C(=O)N3CCC3)c2)CC1	25 to 75%
